# TARGET: Mitogen-activated protein kinase 14 (Homo sapiens)
# Sequence (Q16539 whole entry): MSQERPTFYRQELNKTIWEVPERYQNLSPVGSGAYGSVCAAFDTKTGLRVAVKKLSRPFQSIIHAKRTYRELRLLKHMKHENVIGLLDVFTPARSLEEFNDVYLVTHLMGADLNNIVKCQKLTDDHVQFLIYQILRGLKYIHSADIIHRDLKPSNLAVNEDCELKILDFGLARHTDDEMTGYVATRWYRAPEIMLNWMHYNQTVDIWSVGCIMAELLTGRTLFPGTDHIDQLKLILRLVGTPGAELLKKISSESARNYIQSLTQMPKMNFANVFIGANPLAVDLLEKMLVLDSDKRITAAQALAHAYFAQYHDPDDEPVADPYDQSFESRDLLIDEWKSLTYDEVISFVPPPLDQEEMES
# EXPERIMENTAL PROTOCOL: Inhibition of recombinant full length GST-tagged human MAPK14 expressed in Escherichia coli using Ser/Thr 04 as substrate after 1 hr in presence of ATP by Z'LYTE assay
pIC50: −log10 of the molar value.
PARAMETER: pIC50

Reported pIC50 for C[C@@H]1C[C@H]1C(=O)N1CCN(c2cnc(C#N)c(-c3cnn(C)c3)n2)C[C@H]1C : what is it?
< 4.00

---

# TARGET: Fibroblast growth factor receptor 3 (Homo sapiens, UniProt P22607, K650E)
# Sequence (P22607 23-806 K650E limits assumed): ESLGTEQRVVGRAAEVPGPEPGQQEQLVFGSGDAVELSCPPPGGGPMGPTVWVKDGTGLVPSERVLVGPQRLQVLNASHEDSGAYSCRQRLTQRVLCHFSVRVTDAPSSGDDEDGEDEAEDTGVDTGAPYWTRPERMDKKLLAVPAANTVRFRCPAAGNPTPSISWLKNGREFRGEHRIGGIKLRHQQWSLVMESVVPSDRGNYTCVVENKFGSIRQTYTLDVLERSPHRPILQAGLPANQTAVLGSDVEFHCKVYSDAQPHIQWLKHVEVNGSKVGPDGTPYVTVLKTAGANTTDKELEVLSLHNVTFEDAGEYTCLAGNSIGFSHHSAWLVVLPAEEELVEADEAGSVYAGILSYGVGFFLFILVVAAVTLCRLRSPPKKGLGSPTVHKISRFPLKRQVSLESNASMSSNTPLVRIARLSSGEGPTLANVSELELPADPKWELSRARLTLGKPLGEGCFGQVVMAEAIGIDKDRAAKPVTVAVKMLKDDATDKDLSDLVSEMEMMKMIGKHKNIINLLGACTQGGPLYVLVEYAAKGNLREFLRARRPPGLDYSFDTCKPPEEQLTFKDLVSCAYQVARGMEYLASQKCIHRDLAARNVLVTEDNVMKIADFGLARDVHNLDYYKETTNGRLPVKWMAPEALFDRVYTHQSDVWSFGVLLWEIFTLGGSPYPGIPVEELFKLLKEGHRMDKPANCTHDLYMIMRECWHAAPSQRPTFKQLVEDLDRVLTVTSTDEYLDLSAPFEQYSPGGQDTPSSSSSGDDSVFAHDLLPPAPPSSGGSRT
# EXPERIMENTAL PROTOCOL: Inhibition of recombinant N-terminal His-tagged human FGFR3 K650E mutant (398 to 806 residues) cytoplasmic domain expressed in baculovirus expression system using Tyr 04 peptide as substrate after 1 hr in presence of ATP by Z'-LYTE assay
PARAMETER: IC50

Please state recorded IC50 (tested on Fibroblast growth factor receptor 3 (Homo sapiens, UniProt P22607, K650E)) of C[C@@H]1C[C@H]1C(=O)N1CCN(c2cnc(C#N)c(-c3cnn(C)c3)n2)C[C@H]1C
> 100 µM

---

# TARGET: Receptor tyrosine-protein kinase erbB-4 (Homo sapiens)
# EXPERIMENTAL PROTOCOL: Inhibition of recombinant human N-terminal GST-tagged ERBB4 catalytic domain (708 to 993 residues) expressed in baculovirus expression system using tyrosine-1 peptide as substrate incubated for 60 mins in presence of ATP by Z'-LYTE assay
PARAMETER: IC50

Please state recorded IC50 (tested on Receptor tyrosine-protein kinase erbB-4 (Homo sapiens)) of C[C@@H]1C[C@H]1C(=O)N1CCN(c2cnc(C#N)c(-c3cnn(C)c3)n2)C[C@H]1C
> 100 µM

---

# TARGET: Mitogen-activated protein kinase kinase kinase kinase 5 (Homo sapiens, UniProt Q9Y4K4)
# EXPERIMENTAL PROTOCOL: Inhibition of recombinant full length human GST-tagged KHS1 expressed in baculovirus expression system using serine/threonine-7 peptide as substrate incubated for 60 mins in presence of ATP by Z'-LYTE assay
PARAMETER: pIC50
Quick note: pIC50 values are minus log10 of concentrations in mol/L.

Reported pIC50 for C[C@@H]1C[C@H]1C(=O)N1CCN(c2cnc(C#N)c(-c3cnn(C)c3)n2)C[C@H]1C : what is it?
4.52

---

# EXPERIMENTAL PROTOCOL: Intrinsic clearance in human hepatocytes
# Format: ADME, cell-based, Hepatocyte
# STATED CONDITIONS: read-out: CLH
PARAMETER: CLint scaled
I'd appreciate it if you wrote the number followed by its unit.

Reported CLint scaled for N#Cc1cnc(-c2cccnc2)nc1N1C[C@@H]2C[C@H]1CN2c1cccc(F)c1 : what is it?
69 mL/min/kg

---

# TARGET: Protein kinase C iota type (Homo sapiens)
# Sequence (P41743 whole entry): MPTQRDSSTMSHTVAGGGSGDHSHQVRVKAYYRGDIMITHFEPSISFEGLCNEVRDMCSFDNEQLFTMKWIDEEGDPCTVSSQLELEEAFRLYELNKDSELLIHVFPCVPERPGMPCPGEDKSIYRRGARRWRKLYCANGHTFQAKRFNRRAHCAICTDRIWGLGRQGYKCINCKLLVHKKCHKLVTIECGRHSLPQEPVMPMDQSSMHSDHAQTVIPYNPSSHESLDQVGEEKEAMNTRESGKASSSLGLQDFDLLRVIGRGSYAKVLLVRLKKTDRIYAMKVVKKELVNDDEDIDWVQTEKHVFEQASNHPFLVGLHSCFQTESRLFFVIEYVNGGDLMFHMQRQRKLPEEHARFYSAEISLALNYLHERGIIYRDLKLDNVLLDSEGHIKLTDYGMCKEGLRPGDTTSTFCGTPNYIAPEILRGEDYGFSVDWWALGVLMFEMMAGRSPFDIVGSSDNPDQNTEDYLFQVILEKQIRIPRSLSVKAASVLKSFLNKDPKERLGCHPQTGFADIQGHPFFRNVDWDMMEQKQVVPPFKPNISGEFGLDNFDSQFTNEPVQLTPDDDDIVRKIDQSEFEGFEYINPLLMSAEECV
# EXPERIMENTAL PROTOCOL: Inhibition of recombinant full length human His-tagged PRKCI expressed in baculovirus expression system using serine/threonine-7 peptide as substrate incubated for 60 mins in presence of ATP by Z'-LYTE assay
pIC50: −log10 of the molar value.
PARAMETER: pIC50

Reported pIC50 for C[C@@H]1C[C@H]1C(=O)N1CCN(c2cnc(C#N)c(-c3cnn(C)c3)n2)C[C@H]1C : what is it?
< 4.00

---

# TARGET: Vascular endothelial growth factor receptor 1 (Homo sapiens)
# Sequence (P17948 whole entry, the tested form may be a part): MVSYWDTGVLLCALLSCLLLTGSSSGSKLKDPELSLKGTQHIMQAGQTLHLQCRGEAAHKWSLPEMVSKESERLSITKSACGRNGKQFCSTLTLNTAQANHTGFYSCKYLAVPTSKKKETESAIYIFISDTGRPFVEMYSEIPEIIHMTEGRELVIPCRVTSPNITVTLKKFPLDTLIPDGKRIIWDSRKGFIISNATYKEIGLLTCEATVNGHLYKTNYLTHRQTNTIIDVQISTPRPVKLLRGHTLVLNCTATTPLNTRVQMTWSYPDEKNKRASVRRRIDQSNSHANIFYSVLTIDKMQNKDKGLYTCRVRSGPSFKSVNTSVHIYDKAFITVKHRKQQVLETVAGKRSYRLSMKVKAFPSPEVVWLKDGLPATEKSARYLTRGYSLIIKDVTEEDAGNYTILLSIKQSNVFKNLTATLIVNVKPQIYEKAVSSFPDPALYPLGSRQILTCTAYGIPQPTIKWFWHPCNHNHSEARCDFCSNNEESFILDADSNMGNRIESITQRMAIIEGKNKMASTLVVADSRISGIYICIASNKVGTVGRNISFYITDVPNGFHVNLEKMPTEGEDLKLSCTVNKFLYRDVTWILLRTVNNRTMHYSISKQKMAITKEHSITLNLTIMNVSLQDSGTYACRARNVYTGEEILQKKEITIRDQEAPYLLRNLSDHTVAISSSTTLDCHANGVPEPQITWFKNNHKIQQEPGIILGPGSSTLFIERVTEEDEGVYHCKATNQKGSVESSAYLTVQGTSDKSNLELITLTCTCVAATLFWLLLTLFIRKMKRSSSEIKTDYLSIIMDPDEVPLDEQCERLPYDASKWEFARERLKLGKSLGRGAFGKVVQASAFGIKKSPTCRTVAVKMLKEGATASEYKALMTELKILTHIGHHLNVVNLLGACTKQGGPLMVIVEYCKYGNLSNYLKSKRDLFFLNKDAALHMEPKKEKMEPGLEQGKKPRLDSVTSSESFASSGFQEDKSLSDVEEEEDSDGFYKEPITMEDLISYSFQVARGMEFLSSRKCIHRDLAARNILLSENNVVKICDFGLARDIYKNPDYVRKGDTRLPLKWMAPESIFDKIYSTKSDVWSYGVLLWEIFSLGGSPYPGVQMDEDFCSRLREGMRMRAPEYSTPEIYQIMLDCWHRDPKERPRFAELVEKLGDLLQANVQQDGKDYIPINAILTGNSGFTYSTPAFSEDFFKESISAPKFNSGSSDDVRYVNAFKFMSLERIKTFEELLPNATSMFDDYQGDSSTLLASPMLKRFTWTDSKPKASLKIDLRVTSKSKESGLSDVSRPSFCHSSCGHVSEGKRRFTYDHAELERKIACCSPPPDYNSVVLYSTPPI
# EXPERIMENTAL PROTOCOL: Inhibition of recombinant human GST-tagged FLT1 catalytic domain (781 to 1338 residues) expressed in baculovirus expression system using tyrosine-4 peptide as substrate incubated for 60 mins in presence of ATP by Z'-LYTE assay
PARAMETER: IC50

Reported IC50 for C[C@@H]1C[C@H]1C(=O)N1CCN(c2cnc(C#N)c(-c3cnn(C)c3)n2)C[C@H]1C : what is it?
> 100 µM

---

# TARGET: Voltage-dependent L-type calcium channel subunit alpha-1C (Homo sapiens)
# EXPERIMENTAL PROTOCOL: Inhibition of Cav1.2 (unknown origin)
PARAMETER: IC50

Please state recorded IC50 (tested on Voltage-dependent L-type calcium channel subunit alpha-1C (Homo sapiens)) of C[C@@H]1C[C@H]1C(=O)N1CCN(c2cnc(C#N)c(-c3cnn(C)c3)n2)C[C@H]1C
> 30 µM

---

# TARGET: Serine/threonine-protein kinase Nek4 (Homo sapiens, UniProt P51957)
# EXPERIMENTAL PROTOCOL: Inhibition of recombinant full length human GST-tagged NEK4 expressed in baculovirus expression system using serine/threonine-7 peptide as substrate incubated for 60 mins in presence of ATP by Z'-LYTE assay
PARAMETER: IC50

Reported IC50 for C[C@@H]1C[C@H]1C(=O)N1CCN(c2cnc(C#N)c(-c3cnn(C)c3)n2)C[C@H]1C : what is it?
> 100 µM

---

# TARGET: Platelet-derived growth factor receptor alpha (Homo sapiens, UniProt P16234, T674I)
# Sequence (P16234 24-1089 T674I limits assumed): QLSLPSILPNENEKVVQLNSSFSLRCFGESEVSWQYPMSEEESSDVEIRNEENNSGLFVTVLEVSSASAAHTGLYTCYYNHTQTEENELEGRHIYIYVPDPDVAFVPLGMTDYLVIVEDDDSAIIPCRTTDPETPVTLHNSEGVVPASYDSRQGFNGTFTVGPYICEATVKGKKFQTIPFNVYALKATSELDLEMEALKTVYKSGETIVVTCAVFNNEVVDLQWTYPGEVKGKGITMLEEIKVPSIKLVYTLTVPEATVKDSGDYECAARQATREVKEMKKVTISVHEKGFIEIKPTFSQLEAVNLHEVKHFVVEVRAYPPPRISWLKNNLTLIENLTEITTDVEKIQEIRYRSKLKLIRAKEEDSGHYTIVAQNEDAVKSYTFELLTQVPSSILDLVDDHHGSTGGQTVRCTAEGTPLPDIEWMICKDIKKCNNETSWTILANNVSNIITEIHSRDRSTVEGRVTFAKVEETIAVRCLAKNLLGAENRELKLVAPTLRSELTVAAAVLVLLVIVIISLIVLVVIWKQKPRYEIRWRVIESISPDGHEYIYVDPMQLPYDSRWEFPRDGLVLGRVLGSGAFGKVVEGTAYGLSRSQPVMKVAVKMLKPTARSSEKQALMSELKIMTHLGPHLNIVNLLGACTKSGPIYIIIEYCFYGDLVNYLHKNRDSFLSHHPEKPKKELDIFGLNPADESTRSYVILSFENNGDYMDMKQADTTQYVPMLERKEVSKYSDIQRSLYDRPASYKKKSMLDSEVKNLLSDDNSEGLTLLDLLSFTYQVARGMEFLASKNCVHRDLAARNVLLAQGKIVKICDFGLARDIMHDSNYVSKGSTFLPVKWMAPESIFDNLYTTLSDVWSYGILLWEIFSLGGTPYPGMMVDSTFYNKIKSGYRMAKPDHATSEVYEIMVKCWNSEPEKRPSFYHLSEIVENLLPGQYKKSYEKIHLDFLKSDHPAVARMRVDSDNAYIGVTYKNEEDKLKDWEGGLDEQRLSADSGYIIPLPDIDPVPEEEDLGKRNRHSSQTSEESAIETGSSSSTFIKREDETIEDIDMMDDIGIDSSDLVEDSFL
# EXPERIMENTAL PROTOCOL: Inhibition of recombinant human GST-tagged PDGFRalpha cytoplasmic domain (550 to 1089 residues) harboring T674I mutant expressed in baculovirus expression system using tyrosine-4 peptide as substrate incubated for 60 mins in presence of ATP by Z'-LYTE assay
pIC50: −log10 of the molar value.
PARAMETER: pIC50

Reported pIC50 for C[C@@H]1C[C@H]1C(=O)N1CCN(c2cnc(C#N)c(-c3cnn(C)c3)n2)C[C@H]1C : what is it?
< 4.00

---

# TARGET: Homeodomain-interacting protein kinase 3 (Homo sapiens, UniProt Q9H422)
# EXPERIMENTAL PROTOCOL: Inhibition of recombinant human His-tagged HIPK3 catalytic domain expressed in baculovirus expression system using serine/threonine-9 peptide as substrate incubated for 60 mins in presence of ATP by Z'-LYTE assay
pIC50: −log10 of the molar value.
PARAMETER: pIC50

Reported pIC50 for C[C@@H]1C[C@H]1C(=O)N1CCN(c2cnc(C#N)c(-c3cnn(C)c3)n2)C[C@H]1C : what is it?
< 4.00

---

Consider the following compounds; for each one, report its Ratio IC50.
# Species: Homo sapiens
# EXPERIMENTAL PROTOCOL: Selectivity index, ratio IC50 for inhibition of recombinant human full-length N-terminal His6-tagged p110alpha/untagged full-length p85alpha expressed in baculovirus infected Sf21 cells to ratio IC50 for inhibition of recombinant human full-length N-terminal GST-tagged p110delta/untagged full-length p85alpha expressed in baculovirus infected Sf21 cells

Reported Ratio IC50 for C[C@@H]1CN(c2nc(-c3cnn(C)c3)ncc2C#N)CCN1c1cccc(F)c1 : what is it?
> 76

Proceed to C[C@@H]1CN(c2nc(-c3cnn(C)c3)cnc2C#N)CCN1C(=O)C1CC1
> 67

Proceed to C[C@@H]1CN(c2cnc(C#N)c(-c3cnn(C)c3)n2)CCN1C(=O)C1CC1
> 384

Proceed to Cn1cc(-c2ncc(C#N)c(N3C[C@@H]4C[C@H]3CN4C(=O)C3CC3)n2)cn1
> 78

Proceed to Cn1cc(-c2ncc(C#N)c(N3C[C@@H]4C[C@H]3CN4c3cccc(F)c3)n2)cn1
160

---

# TARGET: Tyrosine-protein kinase Fyn (Homo sapiens, UniProt P06241)
# Sequence (P06241 whole entry, the tested form may be a part): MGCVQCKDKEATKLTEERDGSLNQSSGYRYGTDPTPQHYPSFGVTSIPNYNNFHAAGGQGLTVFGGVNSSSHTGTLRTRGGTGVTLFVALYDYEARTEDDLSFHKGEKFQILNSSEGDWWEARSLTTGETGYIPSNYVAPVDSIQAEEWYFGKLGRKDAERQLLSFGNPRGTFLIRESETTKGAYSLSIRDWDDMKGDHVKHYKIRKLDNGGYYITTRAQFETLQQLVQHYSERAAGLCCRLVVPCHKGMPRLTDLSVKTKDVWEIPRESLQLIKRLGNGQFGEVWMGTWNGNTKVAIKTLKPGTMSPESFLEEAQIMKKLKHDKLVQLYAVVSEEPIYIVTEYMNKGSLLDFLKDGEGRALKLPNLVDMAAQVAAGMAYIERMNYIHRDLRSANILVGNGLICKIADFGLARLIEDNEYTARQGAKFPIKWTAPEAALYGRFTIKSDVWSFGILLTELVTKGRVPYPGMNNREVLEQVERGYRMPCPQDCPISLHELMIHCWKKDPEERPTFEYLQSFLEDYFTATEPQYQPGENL
# EXPERIMENTAL PROTOCOL: Inhibition of recombinant full length C-terminal His-tagged human FYN cytoplasmic domain expressed in baculovirus expression system using fluorophore-labeled tyrosine-2 peptide as substrate after 1 hr in presence of ATP by Z'-Lyte assay
PARAMETER: IC50

Please state recorded IC50 (tested on Tyrosine-protein kinase Fyn (Homo sapiens, UniProt P06241)) of C[C@@H]1C[C@H]1C(=O)N1CCN(c2cnc(C#N)c(-c3cnn(C)c3)n2)C[C@H]1C
> 100 µM

---

# TARGET: Tyrosine-protein kinase receptor UFO (Homo sapiens, UniProt P30530)
# Sequence (P30530 whole entry): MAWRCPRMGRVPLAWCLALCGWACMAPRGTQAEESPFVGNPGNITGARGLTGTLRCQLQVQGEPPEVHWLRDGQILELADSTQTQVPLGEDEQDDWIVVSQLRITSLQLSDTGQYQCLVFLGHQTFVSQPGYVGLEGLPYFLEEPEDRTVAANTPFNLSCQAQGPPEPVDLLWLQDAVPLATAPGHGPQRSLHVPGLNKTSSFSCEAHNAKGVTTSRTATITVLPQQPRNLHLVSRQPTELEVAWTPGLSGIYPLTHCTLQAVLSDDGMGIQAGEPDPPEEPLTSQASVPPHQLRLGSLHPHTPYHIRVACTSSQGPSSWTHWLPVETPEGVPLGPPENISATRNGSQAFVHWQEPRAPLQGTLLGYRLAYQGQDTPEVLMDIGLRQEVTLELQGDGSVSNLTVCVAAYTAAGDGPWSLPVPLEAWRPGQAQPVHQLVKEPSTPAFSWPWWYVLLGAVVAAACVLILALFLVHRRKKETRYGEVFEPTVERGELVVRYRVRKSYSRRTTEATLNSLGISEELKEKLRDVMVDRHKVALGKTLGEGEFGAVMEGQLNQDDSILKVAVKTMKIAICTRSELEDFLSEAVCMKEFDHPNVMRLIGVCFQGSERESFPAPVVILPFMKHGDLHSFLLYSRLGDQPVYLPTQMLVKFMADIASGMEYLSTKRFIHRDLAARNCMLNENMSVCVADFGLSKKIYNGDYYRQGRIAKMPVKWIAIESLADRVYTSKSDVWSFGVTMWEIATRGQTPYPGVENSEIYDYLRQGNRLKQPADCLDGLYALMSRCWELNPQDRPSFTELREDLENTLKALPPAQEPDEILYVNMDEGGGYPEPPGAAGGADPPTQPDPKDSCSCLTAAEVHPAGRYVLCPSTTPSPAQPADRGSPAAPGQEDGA
# EXPERIMENTAL PROTOCOL: Inhibition of recombinant full length human GST-tagged AXL expressed in insect expression system using tyrosine-6 peptide as substrate incubated for 60 mins in presence of ATP by Z'-LYTE assay
pIC50: −log10 of the molar value.
PARAMETER: pIC50

Reported pIC50 for C[C@@H]1C[C@H]1C(=O)N1CCN(c2cnc(C#N)c(-c3cnn(C)c3)n2)C[C@H]1C : what is it?
< 4.00

Numbers sourced from ChEMBL document CHEMBL4602617.
